- target: Voltage-gated inwardly rectifying potassium channel KCNH2 (Homo sapiens, UniProt Q12809); further: assay procedure not described here
- Sequence (Q12809 whole entry): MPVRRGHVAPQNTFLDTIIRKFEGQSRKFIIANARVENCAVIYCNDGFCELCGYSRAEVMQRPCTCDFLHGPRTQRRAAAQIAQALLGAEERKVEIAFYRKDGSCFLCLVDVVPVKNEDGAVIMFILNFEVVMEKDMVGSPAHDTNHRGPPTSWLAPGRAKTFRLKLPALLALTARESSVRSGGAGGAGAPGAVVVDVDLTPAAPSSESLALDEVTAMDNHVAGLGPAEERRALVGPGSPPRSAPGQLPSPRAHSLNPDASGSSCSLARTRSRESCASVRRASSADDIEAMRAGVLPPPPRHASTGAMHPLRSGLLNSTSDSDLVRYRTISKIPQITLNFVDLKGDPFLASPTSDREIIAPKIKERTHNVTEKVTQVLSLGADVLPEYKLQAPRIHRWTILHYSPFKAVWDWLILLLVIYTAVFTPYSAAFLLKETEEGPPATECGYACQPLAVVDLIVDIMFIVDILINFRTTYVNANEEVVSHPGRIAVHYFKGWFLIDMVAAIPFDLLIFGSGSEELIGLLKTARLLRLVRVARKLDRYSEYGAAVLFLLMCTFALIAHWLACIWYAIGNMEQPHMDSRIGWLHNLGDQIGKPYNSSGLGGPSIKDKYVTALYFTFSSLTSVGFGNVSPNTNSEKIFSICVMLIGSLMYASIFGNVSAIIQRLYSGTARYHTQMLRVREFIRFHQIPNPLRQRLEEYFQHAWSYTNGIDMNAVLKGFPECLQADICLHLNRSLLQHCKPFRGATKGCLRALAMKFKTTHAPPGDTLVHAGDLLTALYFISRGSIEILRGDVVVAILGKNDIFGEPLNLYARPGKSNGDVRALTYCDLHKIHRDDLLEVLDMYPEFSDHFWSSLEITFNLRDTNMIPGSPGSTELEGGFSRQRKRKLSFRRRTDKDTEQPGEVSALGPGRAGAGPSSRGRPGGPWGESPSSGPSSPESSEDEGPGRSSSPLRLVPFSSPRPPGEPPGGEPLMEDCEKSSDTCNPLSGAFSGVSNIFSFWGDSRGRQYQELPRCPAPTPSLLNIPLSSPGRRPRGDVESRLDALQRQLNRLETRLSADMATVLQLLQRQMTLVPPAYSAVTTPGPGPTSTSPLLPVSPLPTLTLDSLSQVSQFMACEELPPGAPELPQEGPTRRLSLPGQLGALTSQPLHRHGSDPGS
- Type: functional
- test conditions: read-out: AC50; further: assay procedure not described here
Assignment: determine reported AC50 for the given compounds.

For C=CC(N)CCC(=O)O (centres undefined) [VIGABATRIN] , what is its reported AC50? > 30 µM

Again, but for O=C(CCCN1CCC2(CC1)C(=O)NCN2c1ccccc1)c1ccc(F)cc1 [SPIPERONE] 0.22 µM

Again, but for O=c1oc2ccccc2c(O)c1Cc1c(O)c2ccccc2oc1=O [DICUMAROL] > 30 µM

Again, but for NC(=O)CCC/N=C(\c1ccc(Cl)cc1)c1cc(F)ccc1O [PROGABIDE] > 30 µM

* * *

Reported AC50, Adenosine receptor A3 (Homo sapiens).

For CC(C)(C)NC[C@H](O)COc1nsnc1N1CCOCC1 , what is its reported AC50? > 30 µM

Again, but for CNCCC=C1c2ccccc2CCc2ccccc21 > 30 µM

Again, but for CC1(C)C(/C=C/C=C/C=C/C=C2\N(CCCCS(=O)(=O)O)c3ccc4ccccc4c3C2(C)C)=[N+](CCCCS(=O)(=O)[O-])c2ccc3ccccc3c21 [INDOCYANINE GREEN ACID FORM] 3 µM

Again, but for CC(C)=CCOc1ccc(/C=C/C(=O)c2ccc(OCC=C(C)C)cc2OCC(=O)O)cc1 5.5 µM

Again, but for Cn1c(=O)c2c(ncn2CC(O)CO)n(C)c1=O (stereo not given) > 30 µM

Again, but for CN(C)c1cc(CNCC(C)(C)C)c(O)c2c1C[C@H]1C[C@H]3[C@H](N(C)C)C(O)=C(C(N)=O)C(=O)[C@@]3(O)C(O)=C1C2=O 25 µM

Again, but for O=C(CCCN1CCC(n2c(O)nc3ccccc32)CC1)c1ccc(F)cc1 > 30 µM

Again, but for NCCCC(O)(P(=O)(O)O)P(=O)(O)O > 30 µM

Again, but for CCCCC[C@H](O)/C=C/[C@H]1[C@H](O)CC(=O)[C@@H]1C/C=C\CCCC(=O)O > 30 µM

Again, but for C[C@H]1C[C@H]2[C@@H]3CCC4=CC(=O)C=C[C@]4(C)[C@@]3(Cl)[C@@H](O)C[C@]2(C)[C@@]1(O)C(=O)CO > 30 µM

Again, but for C#Cc1cccc(Nc2ncnc3cc(OCCOC)c(OCCOC)cc23)c1 25 µM

Again, but for CC(/C=C1\SC(=S)N(CC(=O)O)C1=O)=C\c1ccccc1 20 µM

Again, but for COc1ccc(Cc2nccc3cc(OC)c(OC)cc23)cc1OC > 30 µM

Again, but for COC(=O)[C@H](c1ccccc1Cl)N1CCc2sccc2C1 > 30 µM

Again, but for CC(=O)OCC(CCn1cnc2cnc(N)nc21)COC(C)=O > 30 µM

Again, but for CC(C)C[C@H](CN)CC(=O)O > 30 µM

Again, but for CCCCNc1ccc(C(=O)OCCN(C)C)cc1 > 30 µM

Again, but for CNCC[C@@H](Oc1ccccc1C)c1ccccc1 > 30 µM

Again, but for N[C@H](Cc1cc(I)c(Oc2cc(I)c(O)c(I)c2)c(I)c1)C(=O)O 12.5 µM

Again, but for CCn1cc(C(=O)O)c(=O)c2cc(F)c(N3CCN(C)CC3)cc21 > 30 µM

Again, but for [H]/N=C(/N)N[C@H]1[C@H](O)[C@@H](O)[C@H](O[C@@H]2O[C@@H](C)[C@](O)(C=O)[C@H]2O[C@@H]2O[C@@H](CO)[C@H](O)[C@@H](O)[C@@H]2NC)[C@@H](N/C(N)=N\[H])[C@@H]1O > 30 µM

Again, but for CCOC(=O)NNc1ccc(N(CC)CC(C)O)nn1 (stereo not given) > 30 µM

Again, but for CC(=O)Nc1c(I)c(C(=O)N[C@H]2C(O)O[C@H](CO)[C@@H](O)[C@@H]2O)c(I)c(N(C)C(C)=O)c1I (stereo not given in full) [METRIZAMIDE] > 10 µM

Again, but for CC(=O)c1ccc2c(c1)N(CCCN1CCC(CCO)CC1)c1ccccc1S2 > 30 µM

Again, but for CCCCCCNC(=O)n1cc(F)c(=O)[nH]c1=O > 30 µM
